Assay Overview: NCI Yeast Anticancer Drug Screen. Data for the mec2-1 strain (AID 157)
Settings: S. cerevisiae mec2-1 strain, at 5.0 µM (retest, dose inferred, filed as 0.5), active compounds read high
Method: Growth inhibition of yeast strains with defined genetic alterations is measured as a screen for potential anti-cancer activity. Selected strains with alterations in DNA damage repair or cell cycle control were exposed to compounds and growth inhibition was measured relative to vehicle treated controls. The strain used in this assay is mec2-1
Compounds without any hit were thinned out: in the full panel of roughly 79,000, 15% have a hit.
Property Label: growth inhibition (%)

INSERT INTO assay_data (compound, property_label, val) VALUES
  ('O=C1C=C(N2CCN(c3ccccn3)CC2)C(=O)c2c(O)ccc(O)c21', 'growth inhibition', -17),
  ('COC(=O)CCC(NC(=S)N/N=C(\C)c1ccccn1)C(=O)OC (stereo unspecified)', 'growth inhibition', 9),
  ('Nc1cc(N)c(N=Nc2cccc3c(S(=O)(=O)O)cccc23)cc1N=Nc1cc([N+](=O)[O-])ccc1O', 'growth inhibition', 64),
  ('NC(N)=NS(=O)(=O)c1ccc(Nc2c3ccccc3nc3c(C(=O)NCCO)cccc23)cc1', 'growth inhibition', -4),
  ('Cc1ccc(NCCNCCO)c2c(=O)c3cc(O)ccc3sc12', 'growth inhibition', 21),
  ('O=C(NCCCNCCN1C(=O)c2cccc3cc([N+](=O)[O-])cc(c23)C1=O)c1cc(-c2ccccc2)nc2ccccc12', 'growth inhibition', -1),
  ('CC(=O)OCC(C)Cc1cc2c(cc1Br)OCO2 (stereo unspecified)', 'growth inhibition', 0),
  ('O=C(COC(=O)c1ccccc1)c1ccc(Br)cc1', 'growth inhibition', 67),
  ('CC(C)(C)c1ccc(NS(=O)(=O)c2ccc(N)cc2)cc1', 'growth inhibition', 6),
  ('Oc1ccc2c(c1)C(O)CCCC2 (stereo unspecified)', 'growth inhibition', 6),
  ('O=C1CC(=O)c2ccccc21', 'growth inhibition', 1);

* * *

Assay Overview: NCI Yeast Anticancer Drug Screen. Data for the cln2 rad14 strain (AID 165);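 also: 0% = growth equal to vehicle treated cultures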
Settings: S. cerevisiae cln2 rad14 strain, at 50.0 µM, active compounds read high
This is part of a sample that, as a whole, favours compounds with a hit. Of some 79,000 tested, about 15% had one in any assay.
This listing pairs compounds with measured growth inhibition.
Property Label: growth inhibition (%)

INSERT INTO results (compound, property_label, measure_unit, val) VALUES
  ('CCOC(=O)C(C(=O)OCC)=P(c1ccccc1)(c1ccccc1)c1ccccc1', 'growth inhibition', '%', -2.05),
  ('COc1ccc(/C=C2\NC(=S)N(/C=C3\C(=O)Oc4ccccc4C3=O)C2=O)cc1', 'growth inhibition', '%', 89.2),
  ('COc1nc2c(c(=O)n1C)N=C(c1ccccc1)[C@H](C(CC(=O)c1ccccc1)c1ccccc1)C(c1ccccc1)N2 (stereo partly specified)', 'growth inhibition', '%', 7.8),
  ('CC(/C=C/c1ccccc1)=N\NC(N)=S', 'growth inhibition', '%', 83),
  ('O=C1OC(OC/C(Br)=C(\Br)COC2OC(=O)C(Cl)=C2Cl)C(Cl)=C1Cl (stereo unspecified)', 'growth inhibition', '%', 57.6),
  ('c1ccc2c(c1)sc1c3cnccc3ccc21', 'growth inhibition', '%', 33),
  ('CSc1nc(C)c(CCOC(C)=O)c(N=P(c2ccccc2)(c2ccccc2)c2ccccc2)n1', 'growth inhibition', '%', 74.8),
  ('N#CC(=Nc1ccccc1F)Nc1ccccc1F', 'growth inhibition', '%', -0.6),
  ('Cc1c2ccnc(C(=O)NCCN(C)C)c2cc2c3cc(O)ccc3n(C)c12', 'growth inhibition', '%', 44.5),
  ('COC(=O)CCC(NC(=S)N/N=C(\C)c1ccccn1)C(=O)OC (stereo unspecified)', 'growth inhibition', '%', 83),
  ('COC(=O)/C=C(/C(=O)OC)C(Cl)(Cl)Cl', 'growth inhibition', '%', 67.5);

* * *

This listing pairs compounds with measured growth inhibition.
Assay Overview: NCI Yeast Anticancer Drug Screen. Data for the cln2 rad14 strain (AID 165);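 also: 0% = growth equal to vehicle treated cultures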
Settings: S. cerevisiae cln2 rad14 strain, at 5.0 µM (retest, dose inferred, filed as 0.5), active compounds read high
About 79,000 compounds went through this panel and 15% of them were active in at least one assay; those are over-represented in the sample as a whole.
Property Label: growth inhibition (%)

INSERT INTO measurements (compound, property_label, measure_unit, val) VALUES
  ('N#CC1=C(N)N(/N=C/c2ccccc2)C(c2ccccc2)C1(C#N)C#N (stereo not drawn)', 'growth inhibition', '%', -4),
  ('CCCC/C([O-])=C1/C(=O)N(c2ccccc2)N=C1C.CCCC/C([O-])=C1/C(=O)N(c2ccccc2)N=C1C.[Cu+2]', 'growth inhibition', '%', 27),
  ('CC(=O)Nc1ccc2c(c1)-c1ccccc1C2=O', 'growth inhibition', '%', -3),
  ('CCCCCCCCCCCCCCCCCC(=O)NCCCN(C)C', 'growth inhibition', '%', 17),
  ('COc1cccc(/C=N/C(/N=C/c2cccc(OC)c2O)c2cccc(OC)c2O)c1O', 'growth inhibition', '%', -1),
  ('Cc1nc2ccccc2nc1NNc1ccccc1', 'growth inhibition', '%', 79),
  ('CC(O)=NC(Cc1ccc2ccccc2c1)C(O)=NC(Cc1ccc(Cl)cc1)C(O)=NC(Cc1c[nH]c2ccccc12)C(O)=NC(CO)C(O)=NC(Cc1ccc(O)cc1)C(O)=NC(CCCN=C(N)N)C(O)=NC(CC(C)C)C(O)=NC(CCCN=C(N)N)C(=O)N1CCCC1C(O)=NC(C)C(=N)O (stereo not drawn)', 'growth inhibition', '%', -5),
  ('O=C(CC(=O)n1nc(-c2ccccc2)c(N=Nc2ccc(Cl)cc2)c1-c1ccccc1)Nc1cccc(Cl)c1', 'growth inhibition', '%', 2);

* * *

Assay Overview: NCI Yeast Anticancer Drug Screen. Data for the mlh1 strain (AID 171);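 also: 0% = growth of vehicle-treated control cultures of the same strain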
Settings: S. cerevisiae mlh1 strain growth inhibition; at 11.0 µM; active compounds read high
About 79,000 compounds went through this panel and 15% of them were active in at least one assay; those are over-represented in the sample as a whole. Activity calls are given as the source filed them. Rule as the data show it: active = growth inhibition above about 70%; inactive = the rest.
Property Label: growth inhibition

INSERT INTO assay_data (compound, val) VALUES
  ('CN(C)/C=C/c1nnc([N+](=O)[O-])s1', '-1% (inactive)'),
  ('CCOC(=O)COc1c(OC)cc(C2C3=C(COC3=O)Oc3cc4c(cc32)OCO4)cc1OC (configuration not stated)', '-1% (inactive)'),
  ('NC1CCCCC1N.Nc1c(N=Nc2ccc(-c3ccc(N=Nc4cc(S(=O)(=O)[O-])c5ccccc5c4N)cc3)cc2)cc(S(=O)(=O)[O-])c2ccccc12.[OH3+].[OH3+].[Pt+4]', '81% (active)'),
  ('COc1ccc(C(=O)c2ccccc2C(=O)c2ccccc2OC)cc1', '-1% (inactive)'),
  ('Cc1sc2ccc3ccccc3c2[n+]1C', '-70% (inactive)'),
  ('O=[N+]([O-])c1ccc2c(c1)/C(=N/N=C1c3ccccc3Cc3ccccc31)c1cc([N+](=O)[O-])cc([N+](=O)[O-])c1-2', '99% (active)'),
  ('Cc1cc(S(=O)(=O)Nc2nnc3cnc4ccccc4n23)c(S)cc1Cl', '1% (inactive)'),
  ('COc1c(O)c(C=O)c(Br)c(C=O)c1O', '9% (inactive)'),
  ('CCC(C)(C)c1ccc(Oc2cccc(C(=O)O)c2)cc1', '14% (inactive)'),
  ('Cc1csc(=S)n1OC(=O)NC1CCCCC1', '100% (active)'),
  ('COC(C(O)CO)C(O)C(O)C(=O)NNc1ccccc1 (configuration not stated)', '44% (inactive)'),
  ('COc1cc([C@@H]2c3cc4c(cc3[C@H](OC3OC5COC(C(C)C)OC5C(O)C3O)C3COC(=O)[C@@H]32)OCO4)cc(OC)c1O (some centres not stated)', '-32% (inactive)'),
  ('O=C(O)Cc1cc(F)ccc1C(=O)O', '7% (inactive)'),
  ('CCc1cc(O)c(Cl)c(C)c1Cl', '17% (inactive)'),
  ('CCc1c(Cl)c(C)cc(O)c1Cl', '12% (inactive)'),
  ('CC1(C)CC(=O)C(/C=N/c2nc(-c3ccccc3)cs2)=C(O)C1', '12% (inactive)'),
  ('COc1ccc(NC(=O)CC2SC(=Nc3ccccc3C)NC2=O)c([N+](=O)[O-])c1 (configuration not stated)', '0% (inactive)'),
  ('c1ccc2cc(NCNc3ccc4ccccc4c3)ccc2c1', '4% (inactive)'),
  ('O=C(c1ccc([N+](=O)[O-])cc1)C1N=NCC1c1ccccc1 (configuration not stated)', '3% (inactive)'),
  ('O=C(O)CNC(=S)Nc1ccccc1', '-30% (inactive)'),
  ('CC1=NOC(=O)/C1=C/c1ccc2c(c1)OCO2', '6% (inactive)'),
  ('Cc1ccc2c(c1)C1(SC(C)C(=O)N1c1ccc(Cl)cc1)C(=O)N2 (configuration not stated)', '17% (inactive)');
